molecular target: STAT3 (Homo sapiens, UniProt P40763); construct: expressed in transfected cells; host or cells: A549; test: STAT3 HiBiT degradation assay in transfected A549 cells; format: cell-based; settings: 24 h compound incubation, Nano-Glo HiBiT lytic detection, read-out: Cell: STAT3 HiBit A549 degradation 24 h GMean External Abs-DC50
Sequence (P40763 whole entry): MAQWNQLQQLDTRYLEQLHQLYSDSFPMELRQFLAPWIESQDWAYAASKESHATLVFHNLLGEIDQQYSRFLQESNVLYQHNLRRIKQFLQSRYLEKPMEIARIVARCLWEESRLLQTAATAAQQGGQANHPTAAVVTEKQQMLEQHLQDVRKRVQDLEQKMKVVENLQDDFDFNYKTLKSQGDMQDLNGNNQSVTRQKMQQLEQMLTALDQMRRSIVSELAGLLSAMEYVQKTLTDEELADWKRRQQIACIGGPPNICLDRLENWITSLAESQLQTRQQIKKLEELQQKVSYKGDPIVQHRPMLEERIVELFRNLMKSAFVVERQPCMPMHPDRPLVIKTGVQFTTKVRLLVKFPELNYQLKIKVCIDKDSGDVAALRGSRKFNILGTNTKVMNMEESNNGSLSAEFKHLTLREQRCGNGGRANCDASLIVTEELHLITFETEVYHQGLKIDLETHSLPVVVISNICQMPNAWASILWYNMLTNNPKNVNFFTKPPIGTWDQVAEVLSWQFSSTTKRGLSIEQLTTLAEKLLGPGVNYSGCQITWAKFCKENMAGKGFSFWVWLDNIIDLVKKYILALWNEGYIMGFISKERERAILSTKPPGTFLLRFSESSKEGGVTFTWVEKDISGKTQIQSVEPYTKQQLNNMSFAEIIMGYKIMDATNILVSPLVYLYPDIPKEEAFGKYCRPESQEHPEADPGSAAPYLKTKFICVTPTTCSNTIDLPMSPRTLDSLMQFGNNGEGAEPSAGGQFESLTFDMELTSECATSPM
Measure: DC50

Compound | Measure | Endpoint value
COC(=O)N1CC[C@H]2CC[C@@H](C(=O)N[C@@H](CCC(N)=O)C(=O)N[C@H](C(=O)N3CCC(CCCCc4cccc5c4n(C)c(=O)n5C4CCC(=O)NC4=O)CC3)C3CCCCC3)N2C(=O)[C@@H](NC(=O)c2cc3cc(C(F)(F)P(=O)(O)O)ccc3s2)C1 (some centres unmarked) | DC50 | 200 to 1000 nM

Task: Provide the documented DC50 with STAT3 (Homo sapiens, UniProt P40763) as the system for CC(=O)N1CC[C@H]2CC[C@@H](C(=O)N[C@@H](CCC(N)=O)C(=O)N[C@@H](Cc3ccc(F)c(F)c3)C(=O)N3CCC(CCCc4ccc5c(c4)n(C)c(=O)n5C4CCC(=O)NC4=O)CC3)N2C(=O)[C@@H](NC(=O)c2cc3cc(C(=O)P(=O)(O)O)ccc3[nH]2)C1 (some centres unmarked)
Result: > 1000 nM
